# Assay name: chemical genetic growth profiling, strain panel (AID 1159580);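 also: tested at 20 µM; growth read once vehicle control cultures reached saturation at 30 °C; 1 = growth at the plate median or of vehicle wells; lower values mean less growth of the strain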
# Setup conditions: S. cerevisiae deletion strains, growth OD, locus YKL009W, strain mrt4, stronger effect = lower value
About 2,000 (36%) of roughly 5,500 compounds were called active. About 18% were inconclusive and are not listed. The list shows a part of the results.
Form field: normalized growth (one value per entry).

Compound	normalized growth
Nc1nc(N)c2nc(-c3ccccc3)c(N)nc2n1	1.02
CC(C)[C@]12O[C@H]1[C@@H]1O[C@@]13[C@@]1(C)CCC4=C(COC4=O)[C@@H]1C[C@@H]1O[C@@]13C2=O	0.994
C=C1C(N)CC2CC1C2(C)C (stereo unspecified)	0.998
COc1cccc(-c2cc(=O)c3cc(OC)ccc3o2)c1	0.713
C[C@@H]1CC[C@@]2(OC1)OC1C(O)C3C4CC[C@H]5C[C@H](O[C@@H]6O[C@H](CO)[C@H](O[C@@H]7O[C@H](CO)[C@@H](O)[C@H](O[C@@H]8OC[C@@H](O)[C@H](O)[C@H]8O)[C@H]7O[C@@H]7O[C@H](CO)[C@H](O)[C@H](O[C@@H]8O[C@H](CO)[C@@H](O)[C@H](O)[C@H]8O)[C@H]7O)[C@H](O)[C@H]6O)[C@H](O)C[C@]5(C)C4CC[C@]3(C)C1[C@@H]2C (stereo partly specified)	0.0811
CC(=O)OC1CC2C(C)(C)CCCC2(C)C2CCC3(C)C(c4ccoc4)OC(=O)C4OC43C12C (stereo unspecified)	1
CC(=O)O[C@@H]1CC2C(C)(C)C(=O)CC[C@]2(C)C2CC[C@@]3(C)[C@H](c4ccoc4)OC(=O)C4OC43[C@@]21C (stereo partly specified)	0.98
COc1cccc2c1cc([N+](=O)[O-])c1c(C(=O)O)cc3c(c12)OCO3	0.967
Cn1nnnc1SCC1=C(C(=O)O)N2C(=O)C(NC(=O)C(O)c3ccccc3)C2SC1 (stereo unspecified)	1.01
CC(=O)O[C@@H]1CC2C(C)(C)CCC(=O)[C@]2(C)C2CC[C@@]3(C)[C@H](c4ccoc4)OC(=O)C4OC43[C@@]21C (stereo partly specified)	1.01
CC(=O)O[C@H]1C[C@@]2(C)[C@H](c3ccoc3)OC(=O)[C@H]3O[C@]32[C@@]2(C)C1[C@]1(C)C(C[C@H]2OC(C)=O)C(C)(C)[C@H](OC(C)=O)C[C@@H]1OC(C)=O (stereo partly specified)	0.912
CC[N+]1(C)CCCC(OC(=O)C(O)(c2ccccc2)c2ccccc2)C1 (stereo unspecified)	1.01
CC(C)c1ccc2c(c1O)CC[C@H]1C3=C(CC[C@]21C)C(=O)OC3	0.935
O=C1c2c(O)ccc(O)c2C(=O)c2c(NCCNCCO)ccc(NCCNCCO)c21	0.925
NC(=O)CC[C@@H](N)C(=O)O	1.08
CCC1C2CC3C4N(C)c5ccccc5C45CC(C2C5OC(C)=O)N3C1OC(C)=O (stereo unspecified)	1.02

* * *

# Assay name: chemical genetic growth profiling, strain panel (AID 1159580);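 also: tested at 20 µM; growth read once vehicle control cultures reached saturation at 30 °C; 1 = growth at the plate median or of vehicle wells; lower values mean less growth of the strain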
# Setup conditions: S. cerevisiae deletion strains, growth OD, locus YLR039C, strain RIC1
Screen size: about 5,500 compounds; about 2,000 (36%) were called active. Inconclusive results (about 18%) are left out. Cut-off read from the data, not from the text of the source: active = normalized growth mostly below about 0.91 (no sharp cut-off); inconclusive = no clear call, values can overlap the other calls; inactive = mostly above about 0.92. The list shows a part of the results.
Classes used: t for active, f for inactive

>>> print(df.to_string())
                                    compound  discrete_label
 0  CC(=O)Oc1cc(-c2coc3cc(OC(C)=O)c(OC(C)=O)c(OC(C)=O)c3c2=O)cc(OC(C)=O)c1OC(C)=O               t
 1      Cc1ccc(C(=O)c2ccccc2[N+](=O)[O-])cc1               f
 2             Clc1ccc(-c2csc(-c3ccno3)n2)s1               t
 3           COc1ccc(-c2cc(=O)c3ccccc3o2)cc1               t
 4           Clc1cccc(-c2csc(Nc3cccnc3)n2)c1               f
 5                   Cc1c(C)c(C)c(CO)c(C)c1C               f
 6  CC(=O)N(O)CCCCCNC(=O)CCC(=O)N(O)CCCCCNC(=O)CCC(=O)N(O)CCCCCN               f
 7  CC1(C)O[C@@H]2CC3C4C[C@H](F)C5=CC(=O)C=CC5(C)C4C(O)CC3(C)[C@]2(C(=O)CO)O1 (stereo partly drawn)               f
 8  CN1CCN2c3ccccc3Cc3ccccc3C2C1 (stereo not drawn)               f
 9           C[N+]1(CCCCC[N+]2(C)CCCC2)CCCC1               f
10  CCC(/C=C/[C@@H](C)[C@H]1CCC2C3CC=C4C[C@@H](O)CC[C@]4(C)C3CC[C@@]21C)C(C)C (stereo partly drawn)               f
11  CCC(CCC(C)[C@H]1CCC2C3CC=C4C[C@@H](O)CC[C@]4(C)C3CC[C@@]21C)C(C)C (stereo partly drawn)               f
12            COC(=O)C1=C(Nc2ccc(Cl)cc2)CSC1               t
13       COc1cccc(-c2cc(=O)c3cc(OC)ccc3o2)c1               f
14  CCCCCn1c(Sc2ncc([N+](=O)[O-])s2)n[nH]c1=O               t
15  COc1ccc(-c2cc(=O)c3c(OC(C)=O)cc(OC(C)=O)cc3o2)cc1               f
16       COc1ccc(-c2cc(=O)c3cc(OC)ccc3o2)cc1               f
17                           N[C@@H]1CONC1=O               f
18       COc1ccc(-c2coc3cc(O)cc(O)c3c2=O)cc1               t
19  CC(C)(C)OC(=O)NC1CCN(C(=O)c2ccc(Cl)cc2Cl)CC1               f
20  COC(=O)C1=C(C)NC(C)=C(C(=O)OC)C1c1ccccc1[N+](=O)[O-]               t
21      Cc1ccc(COc2ccc(C)nc2[N+](=O)[O-])cc1               t
22  CSc1ccc2c(c1)C(N1CCN(C)CC1)Cc1ccccc1S2 (stereo not drawn)               t
